Hello, the source for this data is ChEMBL document CHEMBL1250506, in case you need it.

Collected MIC values appear next to each entry.
test system: Bacillus subtilis; test: Antibacterial activity against Bacillus subtilis ATCC 6633 by twofold serial dilution technique; format: functional
metric: MIC

> print(dat)
                                    molecule       result
 1  Nc1ccc(S(=O)(=O)NCc2cn(Cc3ccc(F)cc3F)nn2)cc1    128 µg/mL
 2  Nc1ccc(S(=O)(=O)NCc2cn(Cc3ccc(Cl)cc3Cl)nn2)cc1    128 µg/mL
 3  CCCCCCCCCCCCCCCCn1cc(CNS(=O)(=O)c2ccc(N)cc2)nn1    256 µg/mL
 4  Nc1ccc(S(=O)(=O)NCc2cn(Cc3ccccc3)nn2)cc1  > 512 µg/mL
 5  CCCCCCCCCCCCn1cc(CNS(=O)(=O)c2ccc(N)cc2)nn1    128 µg/mL
 6   CCCCCCCCn1cc(CNS(=O)(=O)c2ccc(N)cc2)nn1    256 µg/mL
 7  Nc1ccc(S(=O)(=O)NCc2cn(Cc3cccc(Cl)c3)nn2)cc1  > 512 µg/mL
 8  Nc1ccc(S(=O)(=O)NCc2cn(Cc3ccc([N+](=O)[O-])cc3)nn2)cc1    256 µg/mL
 9  Cc1cccc(Cn2cc(CNS(=O)(=O)c3ccc(N)cc3)nn2)c1    512 µg/mL
10  O=C(N[C@H](CO)[C@H](O)c1ccc([N+](=O)[O-])cc1)C(Cl)Cl      2 µg/mL
11  Nc1ccc(S(=O)(=O)NCc2cn(Cc3ccc(F)cc3)nn2)cc1  > 512 µg/mL

====

tested on: Bacillus subtilis; assay: Antibacterial activity against Bacillus subtilis ATCC 6633 by twofold serial dilution technique; assay type: functional
metric: MIC

> print(dat)
                                   molecule  metric       result
1  Nc1ccc(S(=O)(=O)NCc2cn(Cc3ccccc3Cl)nn2)cc1     MIC  > 512 µg/mL
2  CCCCCCCCCCn1cc(CNS(=O)(=O)c2ccc(N)cc2)nn1     MIC     64 µg/mL
3      CCCCCn1cc(CNS(=O)(=O)c2ccc(N)cc2)nn1     MIC  > 512 µg/mL
4  Nc1ccc(S(=O)(=O)NCc2cn(Cc3ccc(Cl)cc3)nn2)cc1     MIC  > 512 µg/mL
5                 C#CCNS(=O)(=O)c1ccc(N)cc1     MIC  > 512 µg/mL
6     CCCCCCn1cc(CNS(=O)(=O)c2ccc(N)cc2)nn1     MIC    256 µg/mL
